# Tested on: OVCAR-4 ovarian
# Protocol Text: NCI-60 one-dose screen, 48 h (100 = growth as untreated, 0 = no growth, -100 = all killed)
# Condition Notes: 10 µM
This is part of a sample that, as a whole, favours compounds with a hit. Of some 83,000 tested, about 20% had one in any assay.
Binary classification by growth, with 60% as an inclusive lower bound for fulfilled; all other cases are not fulfilled.

COc1cc(NS(C)(=O)=O)ccc1Nc1c2ccc(Cl)cc2nc2c(OC)cccc12: fulfilled
C(=C\c1nc2ccccc2s1)/c1ccc(N2CCOCC2)s1: fulfilled
O=C(NNC(=O)c1ccncc1)Nc1ccc([N+](=O)[O-])cc1: fulfilled

Prompt line: Textbook exercise: given the entry COc1cccc(C(=O)NNc2nc(N3CCN(C4CCCCC4)CC3)nc(N3CCN(C(c4ccccc4)c4ccccc4)CC3)n2)c1 , state whether its growth is greater than or equal to 60%.
Response line: not fulfilled

Prompt line: Textbook exercise: given the entry N#CN1CC[C@H](C(=O)Nc2ncc(-c3ccccc3)s2)C1 , state whether its growth is greater than or equal to 60%.
Response line: not fulfilled

Prompt line: Textbook exercise: given the entry O=[N+]([O-])c1ccc2c(c1)Cc1cc(I)ccc1-2 , state whether its growth is greater than or equal to 60%.
Response line: fulfilled

Prompt line: Textbook exercise: given the entry O=C(COc1ccc(-c2nc3ccccc3[nH]2)cc1)N=Nc1c(O)[nH]c2ccccc12 , state whether its growth is greater than or equal to 60%.
Response line: not fulfilled

Prompt line: Textbook exercise: given the entry C=CCNCCCN1C(=O)c2ccc3c4c(ccc(c24)C1=O)C(=O)N(CCCNCC=C)C3=O , state whether its growth is greater than or equal to 60%.
Response line: not fulfilled

Prompt line: Textbook exercise: given the entry O=C1NN(c2ccccc2)C(c2cccnc2)=N/C1=C\c1cccnc1 , state whether its growth is greater than or equal to 60%.
Response line: fulfilled

Prompt line: Textbook exercise: given the entry CCCCCCCCCCCC(c1ccccc1)N(C)C (stereo not given) , state whether its growth is greater than or equal to 60%.
Response line: fulfilled
